Some compounds, each annotated with its measured z-score.
# studySystem: Metabotropic glutamate receptor 8 (Rattus norvegicus) (UniProt P70579)
# Sequence (P70579 whole entry, looked up): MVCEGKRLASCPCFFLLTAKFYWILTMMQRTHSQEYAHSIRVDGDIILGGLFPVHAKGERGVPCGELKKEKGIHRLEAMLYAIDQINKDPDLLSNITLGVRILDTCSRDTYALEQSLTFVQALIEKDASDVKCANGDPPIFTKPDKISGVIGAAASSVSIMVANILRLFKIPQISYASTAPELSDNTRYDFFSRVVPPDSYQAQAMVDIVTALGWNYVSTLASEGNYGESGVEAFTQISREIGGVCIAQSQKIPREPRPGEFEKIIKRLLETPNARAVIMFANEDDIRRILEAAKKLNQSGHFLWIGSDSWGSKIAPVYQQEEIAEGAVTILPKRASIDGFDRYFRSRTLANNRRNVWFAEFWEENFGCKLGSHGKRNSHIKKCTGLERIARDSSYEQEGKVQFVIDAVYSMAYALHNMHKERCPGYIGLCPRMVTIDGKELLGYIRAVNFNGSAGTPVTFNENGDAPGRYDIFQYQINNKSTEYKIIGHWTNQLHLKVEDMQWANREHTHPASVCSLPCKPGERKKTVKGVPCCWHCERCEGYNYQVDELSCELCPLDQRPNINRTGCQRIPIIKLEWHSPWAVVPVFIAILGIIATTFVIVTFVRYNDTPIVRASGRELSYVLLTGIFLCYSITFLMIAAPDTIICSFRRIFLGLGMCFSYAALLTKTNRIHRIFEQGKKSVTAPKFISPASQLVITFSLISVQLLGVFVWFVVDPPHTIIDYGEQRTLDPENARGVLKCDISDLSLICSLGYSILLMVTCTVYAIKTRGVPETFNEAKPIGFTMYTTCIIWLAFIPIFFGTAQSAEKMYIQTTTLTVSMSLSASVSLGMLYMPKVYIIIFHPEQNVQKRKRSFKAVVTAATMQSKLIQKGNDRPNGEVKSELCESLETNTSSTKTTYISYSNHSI
# methodDescription: mGluR8 Gi/Go-coupled signaling modulation – cell-based, rat, thallium flux, HTS, primary screen (AID 488969)
# conditionDetails: HEK293 rat mGluR8, GIRK thallium flux, FluoZin2; at 10 µM; stronger effect = higher value; submaximal glutamate (EC20) added with thallium
Whole data set: some 110,000 compounds, median “z-score” near -0.1, cut for the highest 2% near 2. This is one part of a sample in which the highest values are shown more often than they occur.
Keep it simple and answer with nothing but the number.

CN1CCN(C(=O)c2ccc3c(=O)n(Cc4ccco4)c(=S)[nH]c3c2)CC1 : 0.757
O=c1c2cc(Cl)ccc2[nH]c(=S)n1Cc1ccco1 : 16.1
Cc1ccc(S(=O)(=O)NC(CC(C)C)C(=O)NCc2ccco2)cc1 (stereo not drawn) : 0.0163
COc1ccc(N(C(=O)Cc2cccs2)C(C(=O)NC2CCCCC2)c2cccn2C)cc1 (stereo not drawn) : -0.0427
COc1ccc2c(c1)NC1(O)c3ccccc3C(=O)C21O (stereo not drawn) : 0.297

Using the record for O=c1[nH]c2ccc(Cl)cc2c(=O)n1Cc1ccco1 , state its measured z-score.
5.27

Using the record for O=C(CNC(=O)c1cccc(F)c1)N/N=C/c1cccc([N+](=O)[O-])c1 , state its measured z-score.
-0.00152

Using the record for COc1ccc(NC(=O)C(NC(=O)CC2NC(=O)NC2=O)c2ccccc2)cc1 (stereo not drawn) , state its measured z-score.
0.0457

Using the record for CCOc1cc(C(=S)N2CCOCC2)ccc1OS(=O)(=O)c1ccccc1 , state its measured z-score.
-0.19

----------
# studySystem: Metabotropic glutamate receptor 8 (Rattus norvegicus)
# methodDescription: mGluR8 Gi/Go-coupled signaling modulation – cell-based, rat, thallium flux, HTS, primary screen (AID 488969)
# conditionDetails: HEK293 rat mGluR8, GIRK thallium flux, FluoZin2; at 10 µM; stronger effect = higher value; submaximal glutamate (EC20) added with thallium
In all, about 110,000 compounds were measured (“z-score”: median about -0.1, highest 2% from about 2 on). The sample as a whole holds a higher share of the highest values than the screen did.
Answer 0 (no) if z-score is under -0.04, and 1 (yes) if it is -0.04 or more.

hey, is z-score for this one >= -0.04? O=C1c2ccccc2CC1(Cc1ccccc1)Cc1ccccc1
0 (no)

hey, is z-score for this one >= -0.04? COc1ccc(CCNC(=S)NC(=O)c2ccccc2)cc1OC
1 (yes)

hey, is z-score for this one >= -0.04? O=C(Nc1nnc(-c2ccccc2Cl)o1)c1nc2ccccc2s1
1 (yes)

hey, is z-score for this one >= -0.04? O=C(Nc1nnc(-c2ccccc2)o1)c1cc(Cl)sc1Cl
1 (yes)

hey, is z-score for this one >= -0.04? CCOc1ccc(C2=NNC(c3cccs3)=Nc3ccc(OC)cc32)cc1
1 (yes)

----------
# studySystem: Metabotropic glutamate receptor 8 (Rattus norvegicus) (UniProt P70579)
# methodDescription: mGluR8 Gi/Go-coupled signaling modulation – cell-based, rat, thallium flux, HTS, primary screen (AID 488969)
# conditionDetails: HEK293 rat mGluR8, GIRK thallium flux, FluoZin2; at 10 µM; stronger effect = higher value; submaximal glutamate (EC20) added with thallium
Whole data set: some 110,000 compounds, median “z-score” near -0.1, cut for the highest 2% near 2. The sample holds the highest values, similar compounds and a random draw of the others, so the mix is not that of the screen.
parameter: z-score
Keep it simple and answer with nothing but the number.

// known answers, use as guide
CCOC(=O)CSc1cc(CSc2ccccc2)nc(-c2ccccc2)n1 : 4.85
NS(=O)(=O)c1ccc2nc(NC(=O)C3CCCO3)sc2c1 (stereo not given) : 2.74
O=C(CCSCCc1ccccn1)Nc1ccc(Br)cc1F : -0.191
COc1ccc(NS(=O)(=O)c2ccc(Br)s2)cc1OC : 2.11
CS(=O)(=O)c1ccc2nc(NC(=O)Nc3cccc(Cl)c3)sc2c1 : 0.135
Cc1cc(Br)ccc1NC(=S)Nc1cccc([N+](=O)[O-])c1 : 0.848

Using the record for COc1cccc(C2=NOC(C(=O)Nc3ccccc3SC)C2)c1 (stereo not given) , state its measured z-score.
-0.115

Using the record for COc1ccc(C)cc1NS(=O)(=O)c1ccc(Br)s1 , state its measured z-score.
0.369

Using the record for Cc1ccc(NC(=S)Nc2nc(CC(=O)Nc3ccccc3)cs2)cc1 , state its measured z-score.
0.0541

Using the record for Cc1ccc(CNC(=O)Cc2csc(Nc3nc(=S)[nH]c4ccccc34)n2)cc1 , state its measured z-score.
10.7

Using the record for COC(=O)c1ccc(C2C(Oc3ccc(OC)cc3)C(=O)N2CCc2ccc(OC)c(OC)c2)cc1 (stereo not given) , state its measured z-score.
-0.234

----------
# studySystem: Metabotropic glutamate receptor 8 (Rattus norvegicus) (UniProt P70579)
# methodDescription: mGluR8 Gi/Go-coupled signaling modulation – cell-based, rat, thallium flux, HTS, primary screen (AID 488969)
# conditionDetails: HEK293 rat mGluR8, GIRK thallium flux, FluoZin2; at 10 µM; stronger effect = higher value; submaximal glutamate (EC20) added with thallium
Over roughly 110,000 compounds, “z-score” has its median near -0.1; the highest 2% begin near 2. Only a selection was taken, and the highest values are over-represented in it overall.
Answer false if z-score is under -0.1, and true if it is -0.1 or more.

Some entries whose results are on file:
Cc1ccc(-c2n[nH]c(=S)n2/N=C\c2ccco2)cc1 : false
S=c1[nH]nc(-c2ccccc2)n1/N=C/C=C/c1ccco1 : true
C/C(=N\NC(=O)COc1ccc(C(C)(C)C)cc1)c1ccc(-n2ccnc2)cc1 : true
COc1cc2c(C(=O)NCc3ccc4c(c3)OCO4)cn(C)c(=O)c2cc1OC : false
CCCC1CC(CSC(=N)N)OC1=O (centres undefined) : false

hey, is z-score for this one >= -0.1? C/C(=N\Nc1ccc(C(=O)O)cc1)c1nc2ccccc2n1C
false

hey, is z-score for this one >= -0.1? CCCCC1=C([O-])C2N=CC=CC2=[N+](c2ccccn2)C1=O (centres undefined)
false

----------
Some compounds, each annotated with its measured z-score.
# studySystem: Metabotropic glutamate receptor 8 (Rattus norvegicus) (UniProt P70579)
# methodDescription: mGluR8 Gi/Go-coupled signaling modulation – cell-based, rat, thallium flux, HTS, primary screen (AID 488969)
# conditionDetails: HEK293 rat mGluR8, GIRK thallium flux, FluoZin2; at 10 µM; stronger effect = higher value; submaximal glutamate (EC20) added with thallium
Whole data set: some 110,000 compounds, median “z-score” near -0.1, cut for the highest 2% near 2. The sample holds the highest values, similar compounds and a random draw of the others, so the mix is not that of the screen.
Keep it simple and answer with nothing but the number.

// known answers, use as guide
CCOC(=O)C(C)Sc1nc(C2CC2)cc(C(F)(F)F)c1C#N (stereo unspecified) : 1.1
Cc1cccc(OCC(O)Cn2c(=N)n(CCN3CCCCC3)c3ccccc32)c1 (stereo unspecified) : 5.06
COc1ccc(Nc2ccc(S(=O)(=O)N3CCCCCC3)cc2[N+](=O)[O-])cc1 : 0.571
Cc1ccccc1OCC(O)Cn1c(=N)n(CCN2CCOCC2)c2ccccc21 (stereo unspecified) : 1.12
CCc1nnc(NC(=O)C2CC(=O)N(c3ccc4c(c3)OCCO4)C2)s1 (stereo unspecified) : -0.124
N=c1n(CCN2CCCCC2)c2ccccc2n1CC(O)c1cccc(Br)c1 (stereo unspecified) : 0.566
Cc1ccc(OCC(O)Cn2c(=N)n(CCN3CCCCC3)c3ccccc32)cc1 (stereo unspecified) : 4.9
CCn1c(N2CCN(C(=S)NCC(C)C)CC2)nc2ccccc21 : -0.148

Using the record for O=C(Cn1nc(Cl)nc1Cl)c1cc2ccccc2oc1=O , state its measured z-score.
-0.931

Using the record for COCc1c(C(=O)N2CCN(c3ccc(C(F)(F)F)cn3)CC2)oc2ccccc12 , state its measured z-score.
-0.0186

Using the record for Cc1cc(=O)[nH]c(N/N=C/c2cccs2)n1 , state its measured z-score.
-0.0197

----------
Some molecules, each annotated with its measured z-score.
# studySystem: Metabotropic glutamate receptor 8 (Rattus norvegicus) (UniProt P70579)
# methodDescription: mGluR8 Gi/Go-coupled signaling modulation – cell-based, rat, thallium flux, HTS, primary screen (AID 488969)
# conditionDetails: HEK293 rat mGluR8, GIRK (G protein-gated inwardly rectifying potassium channel) thallium flux, FluoZin2; at 10 µM; stronger effect = higher value; submaximal glutamate (EC20) added with thallium
Over roughly 110,000 compounds, “z-score” has its median near -0.1; the highest 2% begin near 2. For the sample, the highest values were picked, then their nearest neighbours and some compounds at random.
Keep it simple and answer with nothing but the number.

COc1ccccc1N1CCN(C(CNC(=O)c2ccc3c(c2)OCO3)c2cccnc2)CC1 (stereo unspecified) : 0.0309
CNC(=O)CCCc1nc(-c2ccccc2Cl)no1 : 0.0193
CCC(Sc1n[nH]c(=O)[nH]c1=O)C(=O)OCc1ccccc1 (stereo unspecified) : 0.193
O=C1c2ccccc2C(Nc2ccc3c(c2)OCCO3)N1c1ccccn1 (stereo unspecified) : 0.814
O=C(Nc1cccc(C(=O)N2CCCC2)c1)c1ccccc1Cl : -0.0275
CCN1C(=O)c2ccc(C(=O)NCc3ccccc3)cc2C1=O : -0.278

Using the record for N#CC1=C(SCC(=O)NCc2ccccc2)NC(=O)CC1c1ccco1 (stereo unspecified) , state its measured z-score.
1.77

Using the record for COc1cc(NC(=S)Nc2cccnc2)cc(OC)c1OC , state its measured z-score.
-0.192

Using the record for COC(=O)CCC(=O)Nc1ccc(C)cc1OC(=O)CCC(=O)OC , state its measured z-score.
0.273

Using the record for Cc1ccc(S(=O)(=O)CC(=O)c2ccc(C)c([N+](=O)[O-])c2)cc1 , state its measured z-score.
-0.799

Using the record for COc1nc(C#N)c(N2CCOCC2)o1 , state its measured z-score.
-0.118

Using the record for CCC(=O)Nc1ccc(-c2csc(NNC(C)=O)n2)cc1 , state its measured z-score.
-0.182

Using the record for Cc1ccc(CCSc2ccc(C(C)C)cc2)cn1 , state its measured z-score.
-0.399

Using the record for CN(C)c1ccc(P(=O)(Nc2ccc([N+](=O)[O-])cc2)N2CCOCC2)c(NC(=O)c2cccs2)c1 (stereo unspecified) , state its measured z-score.
-0.185
